Read-out record for 5-hydroxytryptamine receptor 6 (Homo sapiens, UniProt P50406): Ki
Output spec: scalar in nM, unitless text.

* COc1ccc(NS(=O)(=O)c2ccc(Br)cc2)cc1N1CCN(C)CC1 | 2.82

// next entry
Input CN(C)CCC=C1c2ccccc2CCc2ccccc21 . Output Ki: 141

Values from BindingDB's records for doi:10.1124/mol.64.6.1295
